tested on: ATP; assay: switch fluorescence ratio, 500 uM ATP over buffer (Cy3 cluster intensity, sum of 5 cycles each) (fold (ratio)); higher = stronger signal-on switching upon ATP binding; sequences stand for … in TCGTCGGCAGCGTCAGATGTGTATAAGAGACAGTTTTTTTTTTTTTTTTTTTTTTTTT…TC; details: aptamer strand: ATP DNA aptamer (quencher-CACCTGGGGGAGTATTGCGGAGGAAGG + anchor), 100 nM annealed; ATP concentration: 500 uM;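 further: ATP exposure 15 min at 22 °C before imaging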
Label MET when switch fluorescence ratio >= 1; otherwise NOT MET.

// inclusive: switch fluorescence ratio at least 1? input: "CATGTATGT"
MET

Moving on to "GCATGGTGAC"
MET

Moving on to "AAGAAAACTT"
MET

Moving on to "ATGCCCAGGG"
MET

Moving on to "TTCCGGGCGT"
MET

Moving on to "GTTTGGCATA"
MET

Moving on to "TTTGTTTCT"
NOT MET

* * *

test system: ATP; experiment: switch fluorescence ratio, 500 uM ATP over buffer (Cy3 cluster intensity, sum of 5 cycles each) (fold (ratio)); higher = stronger signal-on switching upon ATP binding; sequences stand for … in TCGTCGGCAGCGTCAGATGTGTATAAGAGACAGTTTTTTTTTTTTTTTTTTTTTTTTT…TC; conditions: aptamer strand: ATP DNA aptamer (quencher-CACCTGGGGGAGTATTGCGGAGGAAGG + anchor), 100 nM annealed; ATP concentration: 500 uM;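 further: ATP exposure 15 min at 22 °C before imaging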
switch fluorescence ratio for assorted sequences
The answer should be a number; do not append a unit.

INSERT INTO results (sequencechain, testedon, measurement) VALUES
  ('TTTTTTTCAT', 'ATP', 1),
  ('CGCGTTAGA', 'ATP', 1.04),
  ('TTTTTTTGCT', 'ATP', 0.994),
  ('GATTCTGATT', 'ATP', 0.976);

Would you mind telling me what switch fluorescence ratio value was observed for "ATTGGGGGTT" ?
0.978

Moving on to "ATATGAGTGA"
0.985

Moving on to "GCTGAAAGTG"
1

Moving on to "TGGTGTCACG"
0.983

Moving on to "GGGAGCCACG"
1.02

Moving on to "GTTCGGGGAC"
1.03

Moving on to "TCAGGGTCAG"
1.01

* * *

system: ATP; test: switch fluorescence ratio, 500 uM ATP over buffer (Cy3 cluster intensity, sum of 5 cycles each) (fold (ratio)); higher = stronger signal-on switching upon ATP binding; sequences stand for … in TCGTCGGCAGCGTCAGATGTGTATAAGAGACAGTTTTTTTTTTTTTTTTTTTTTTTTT…TC; conditions: aptamer strand: ATP DNA aptamer (quencher-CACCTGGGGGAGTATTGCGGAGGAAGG + anchor), 100 nM annealed; ATP concentration: 500 uM;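 further: ATP exposure 15 min at 22 °C before imaging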
switch fluorescence ratio for assorted sequences
The answer should be a number; do not append a unit.

INSERT INTO measurements (sequencechain, testedon, reportedproperty, measurement) VALUES
  ('CCTGTGGATC', 'ATP', 'switch fluorescence ratio', 1.05),
  ('GGGACTGCGT', 'ATP', 'switch fluorescence ratio', 0.962),
  ('CAACGAAGTG', 'ATP', 'switch fluorescence ratio', 1),
  ('TTGGCGTAAG', 'ATP', 'switch fluorescence ratio', 1.03);

Would you mind telling me what switch fluorescence ratio value was observed for "GCCGAGTTTC" ?
1.02

Moving on to "GGGTACTATT"
0.982

Moving on to "AGCGAGGGGC"
1.02

Moving on to "TGACTGGGTT"
1.02

Moving on to "AGTAGTGGGG"
0.994

Moving on to "AGTTATCGAC"
1.01

Moving on to "GTAATAGGGT"
1.01

Moving on to "TTGATGGCGA"
1.22
